tested system: T1, QIEKLVEGASQIQ (not fully specified)
T1 construct: member of the group m41; the text speaks of glycine substitution, the sheet prints alanine
T1 peptide: QIEKLVEGASQIQ
experiment: ELISA, immobilized peptide QIEKLVEGASQIQ
No end group written: not given here.
measured attribute: OD450 absorbance
Provide a numeric answer; units are not to be included.

Note to self: OD450 absorbance recorded for MM05 (antibody, IgG1, V domains shown) VH: QVQLQQPGAELVRPGASVKLSCEASGYTFTSYWMNWVKQRPGQGLEWIGMIDPSDSETHYNQMFKDKATLTVDKSSSTAYMQLSSLTSEDSAVYYCARYLGGKEGSFDYWGQGTTLTVSS VL: DIVMSQSPSSLAVSAGEKVTMSCKSSQSLLNSRTRKNYLAWYQQKPGQSPKLLIYWASTRESGVPDRFTGSGSGTDFTLTISSVQAEDLAVYYCKQSYSLPWTFGGGTKLEIKR was 0.852

Data provenance: patent US20230080534A1
